# tested.target: papain (Carica papaya, UniProt P00784)
# Sequence (P00784 134-345): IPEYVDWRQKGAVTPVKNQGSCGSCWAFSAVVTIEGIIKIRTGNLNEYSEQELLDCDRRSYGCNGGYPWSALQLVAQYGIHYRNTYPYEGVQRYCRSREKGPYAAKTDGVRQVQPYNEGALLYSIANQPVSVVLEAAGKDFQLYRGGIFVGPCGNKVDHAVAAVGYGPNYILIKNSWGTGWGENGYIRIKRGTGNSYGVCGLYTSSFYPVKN
# assay.details: fluorimetric papain assay with ZFR-MCA substrate
# Type: biochemical

structure.as.smiles: COC(=O)[C@]1(Cc2ccc(O)c(CC=C(C)C)c2)OC(=O)C(O)=C1c1ccc(O)cc1
tested.target: papain (Carica papaya, UniProt P00784)
IC50 / µM: 6.24

----------
# tested.target: papain (Carica papaya)
# assay.details: fluorimetric papain assay with ZFR-MCA substrate
# Type: biochemical
# settings: read-out: IC50
IC50 by entry:

compound: CC(=C\C(=O)O)/C=C(\C)C[C@H](C)CCCC[C@H]1OC(=O)[C@@H]1CO
IC50, µM: 9.38

compound: CC(=C\C(=O)O)/C=C(\C)C[C@H](C)CCCC[C@@H](O)C(CO)C(=O)O (some centres unmarked)
IC50, µM: 28.6
